Uterine EPO (V. max) by entry:
System: Uterine Eosinophil Peroxidase (EPO)
Assay name: Uterine Eosinophil Peroxidase (EPO) Assay
Assay type: in vivo, rat
Measurement conditions: OVX Sprague Dawley rats, oral, daily for 4 days, dose 0.1 mg/kg
Property: Uterine EPO (V. max)

Compound	Property	Value reported
Cl.O=C(c1ccc(OCCN2CCCCC2)cc1)c1c(-c2ccc(OP(=O)(Oc3ccccc3)Oc3ccccc3)cc2)sc2cc(OP(=O)(Oc3ccccc3)Oc3ccccc3)ccc12 [Example 2]	Uterine EPO (V. max)	9.8
Cl.O=C(c1ccc(OCCN2CCCCC2)cc1)c1c(-c2ccc(OP(=O)(c3ccccc3)c3ccccc3)cc2)sc2cc(OP(=O)(c3ccccc3)c3ccccc3)ccc12 [Example 3]	Uterine EPO (V. max)	7
CCOP(=O)(OCC)Oc1ccc(-c2sc3cc(OP(=O)(OCC)OCC)ccc3c2C(=O)c2ccc(OCCN3CCCCC3)cc2)cc1.Cl [Example 1]	Uterine EPO (V. max)	6.5
